Known log2 fold change of degron read counts of a selection of sequences
testSystem: T1, CRBN, Q96SW2;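 note: pooled lentiviral library of zinc finger degron-EGFP fusions in mCherry-positive Jurkat cells, FACS-sorted after compound exposure, with degron abundance counted by next-generation sequencing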
T1 chain: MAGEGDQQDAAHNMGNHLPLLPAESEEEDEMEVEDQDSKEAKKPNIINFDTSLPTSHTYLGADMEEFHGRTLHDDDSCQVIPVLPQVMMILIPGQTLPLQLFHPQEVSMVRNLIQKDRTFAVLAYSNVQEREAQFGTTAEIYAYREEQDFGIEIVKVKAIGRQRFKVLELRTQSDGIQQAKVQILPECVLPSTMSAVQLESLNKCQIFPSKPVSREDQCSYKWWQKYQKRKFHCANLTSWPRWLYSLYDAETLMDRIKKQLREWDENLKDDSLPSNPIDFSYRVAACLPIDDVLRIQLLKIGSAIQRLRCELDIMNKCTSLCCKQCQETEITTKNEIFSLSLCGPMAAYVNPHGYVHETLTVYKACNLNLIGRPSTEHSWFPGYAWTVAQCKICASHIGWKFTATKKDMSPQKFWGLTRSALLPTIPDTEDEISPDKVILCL
assayDetails: log2 fold change of degron read counts, EGFP-low vs EGFP+ sorted cells (limma voom), compound-induced degradation; higher = more compound-induced degradation of the degron-EGFP fusion; degrons are variants of IKZF1/3 zinc finger 2; compound dose not given here
reportedConditions: Jurkat; 18 h; compound: compound 33 (diphenyl IMiD analogue)
The full ranking holds about 8,300 sequences; the median of “log2 fold change of degron read counts, EGFP-low vs EGFP+ sorted cells (limma voom), compound-induced degradation” is about -1.1, and the highest 2% start at about 3.2. For the sample, the highest values were picked, then their nearest neighbours and some sequences at random.
Could you respond with only the numeric value?

sequenceChain | log2 fold change of degron read counts
FWCEICGAFFTQKGNLLRHIKL [46F_47W_49E_50I_52G_53A_54F_55F_67L_, Q9UKT9] | 2.12
FNCPICGHAFTQKGNLLRHIKL [46F_47N_49P_50I_52G_53H_54A_55F_67L_, Q9UKT9] | -2.41
FCCPQCGATFTQKGNLLRHIKL [46F_47C_49P_50Q_52G_53A_54T_55F_67L_, Q9UKT9] | 1.49

Entry FYCNQCGRCFTQKGNLLRHIKL [46F_47Y_49N_50Q_52G_53R_54C_55F_67L_, Q9UKT9] : reported log2 fold change of degron read counts = ?
-1.97
